biological target: HLA-B*15:17; assay: IEDB peptide-MHC binding, purified MHC/direct/fluorescence; filed as Kd, often an IC50 or EC50 that approximates it; bounds were set here for any values at or beyond the usual limits of such assays; settings: source organism: Encephalitozoon cuniculi GB-M1
pKd: −log10 of the molar value.
READOUT NAME: pKd

{"SEQUENCE DATA": "FSFFMNENF", "TEST TARGET": "HLA-B*15:17", "REPORTED": "≥ 9.00"}

---

biological target: HLA-C*12:03; assay: IEDB peptide-MHC binding, purified MHC/direct/fluorescence; filed as Kd, often an IC50 or EC50 that approximates it; bounds were set here for any values at or beyond the usual limits of such assays; conditions: source organism: Bacillus anthracis str. A0488
READOUT NAME: Kd

{"SEQUENCE DATA": "YFIFVRAIL", "REPORTED": "436 nM"}
